Hey, just so you know, these numbers are from ChEMBL document CHEMBL1123516.

Measured ED50, listed per entry.
# Tested on: Mus musculus
# test-name: Anticonvulsant activity tested by maximal electroshock test (MES) in mouse after 1 hr of administration
# Type: functional

test-smiles: Cc1ccccc1-c1nnc(N(C)NC(C)C)s1.Cl
ED50: 35 mg/kg

Query NN(c1ccccc1)c1nnc(-c2ccccc2-c2ccccc2)s1 on Mus musculus; ED50 returned: > 100 mg/kg

Query Cc1ccccc1-c1nnc(NNC2CCCC2)s1.Cl on Mus musculus; ED50 returned: > 100 mg/kg

Query CNN(c1nnc(-c2ccccc2C)s1)C(C)C.Cl on Mus musculus; ED50 returned: > 100 mg/kg

Query Cc1ccccc1-c1nnc(N(C)N)s1.Cl on Mus musculus; ED50 returned: 75 mg/kg

Query CN(N)c1nnc(-c2ccc(-c3ccccc3)cc2)s1 on Mus musculus; ED50 returned: > 200 mg/kg

Query Cl.NNc1nnc(-c2ccccc2-c2ccccc2)s1 on Mus musculus; ED50 returned: 28 mg/kg

Query CNN(C)c1nnc(-c2ccccc2-c2ccccc2)s1.Cl on Mus musculus; ED50 returned: ~100 mg/kg
